tested on: Mycobacterium tuberculosis; assay: Antimicrobial activity against Mycobacterium tuberculosis H37Rv by microplate alamar blue assay; format: functional
Parameter: MIC. Scope: all listed entries.
Your answer is read as µg/mL, so omit the unit and give the number.

Take a look at these entries with their results.
smiles-record	u	MIC
COC(=O)c1ccc(-c2c(C#N)[n+]([O-])c3cc(OC)ccc3[n+]2[O-])cc1	µg/mL	3.13
CCOC(=O)c1c(C)[n+]([O-])c2ccc(Cl)cc2[n+]1[O-]	µg/mL	0.2
Cc1ccc(-c2c(C#N)[n+]([O-])c3cc(Cl)ccc3[n+]2[O-])cc1	µg/mL	6.25
Cc1cc2c(cc1C)[n+]([O-])c(-c1ccc(OC(F)(F)F)cc1)c(C#N)[n+]2[O-]	µg/mL	0.42
COC(=O)c1ccc(-c2c(C#N)[n+]([O-])c3cc(C)c(C)cc3[n+]2[O-])cc1	µg/mL	6.25
CCOC(=O)c1c(-c2ccc(F)cc2)[n+]([O-])c2ccccc2[n+]1[O-]	µg/mL	0.39
Cc1cc2c(cc1C)[n+]([O-])c(-c1ccc(Cl)cc1)c(C#N)[n+]2[O-]	µg/mL	0.78
COc1ccc2c(c1)[n+]([O-])c(C#N)c(-c1ccccc1)[n+]2[O-]	µg/mL	3.13

stdin: Identify MIC associated with the compound CCOC(=O)c1c(-c2ccc(C(F)(F)F)cc2)[n+]([O-])c2ccccc2[n+]1[O-]
stdout: 1.56

stdin: Identify MIC associated with the compound N#Cc1c(-c2ccc(Cl)cc2)[n+]([O-])c2ccc(Cl)cc2[n+]1[O-]
stdout: 0.39

stdin: Identify MIC associated with the compound CC(=O)c1c(C)[n+]([O-])c2ccc(Cl)cc2[n+]1[O-]
stdout: 0.78

stdin: Identify MIC associated with the compound Cc1cc2c(cc1C)[n+]([O-])c(-c1ccccc1)c(C#N)[n+]2[O-]
stdout: 0.39

stdin: Identify MIC associated with the compound N#Cc1c(-c2ccc(Cl)cc2)[n+]([O-])c2ccccc2[n+]1[O-]
stdout: 0.39

stdin: Identify MIC associated with the compound Cc1ccc(-c2c(C#N)[n+]([O-])c3ccccc3[n+]2[O-])cc1
stdout: 0.39

stdin: Identify MIC associated with the compound CCOC(=O)c1c(-c2ccccc2)[n+]([O-])c2ccc(OC)cc2[n+]1[O-]
stdout: 6.25
